Reported fold change of Tryptamine concentration by item:
tested on: Clostridium sporogenes DSM 1664; assay: fold change of Tryptamine concentration vs plate DMSO controls (fold change (ratio)); higher = more amine produced, active = hit call of the paper (significant change in both replicates, either direction); conditions: incubation time: 27 h, anaerobic, 37 °C
Structures can show the parent of a compound that is named as a salt.
Assay readout: fold change of Tryptamine concentration

Compound	Assay readout	Data value
OC[C@H]1O[C@@](CO)(OC[C@@]2(OC[C@@]3(O[C@H]4O[C@H](CO)[C@@H](O)[C@H](O)[C@H]4O)O[C@H](CO)[C@@H](O)[C@@H]3O)O[C@H](CO)[C@@H](O)[C@@H]2O)[C@@H](O)[C@@H]1O [Nystose] (50 µM)	fold change of Tryptamine concentration	1.01 (inactive)
COc1ccc(-c2cc(=O)c3c(O)cc(O[C@@H]4O[C@H](CO[C@@H]5O[C@@H](C)[C@H](O)[C@@H](O)[C@H]5O)[C@@H](O)[C@H](O)[C@H]4O)cc3o2)cc1O [Diosmin] (20 µM)	fold change of Tryptamine concentration	0.985 (inactive)
CN(C)CCOC(c1ccccc1)c1ccccc1.Cn1c(=O)c2[nH]c(Cl)nc2n(C)c1=O [Dimenhydrinate] (20 µM)	fold change of Tryptamine concentration	1.02 (inactive)
CCN(CC)CCc1nc(-c2ccccc2)no1 [Oxolamine citrate salt] (20 µM)	fold change of Tryptamine concentration	1.04 (inactive)
CNCC[C@@H](Oc1cccc2ccccc12)c1cccs1 [(R)-Duloxetine hydrochloride] (20 µM)	fold change of Tryptamine concentration	0.986 (inactive)
CC(=O)O[C@H]1C[C@@]2(C)[C@@H](C[C@@H](O)[C@H]3[C@@]4(C)CC[C@@H](O)[C@@H](C)[C@@H]4CC[C@@]32C)/C1=C(\CCC=C(C)C)C(=O)O [Fusidic acid sodium salt] (20 µM)	fold change of Tryptamine concentration	0.0208 (active)
